Please respond with reported FACS M2-HK MFI for every item in the list.
assay-system: M2 protein of A/Hong Kong/483/1997, expressed on cells (Influenza A virus A/Hong Kong/483/1997 (H5N1))
Give just the number in MFI; leave the unit off.

Identify measured FACS M2-HK MFI associated with 3260_D19 (antibody, V domains shown) VH: DMQLVESGGGLVPPGGSLRLSCAASGFSVSDNYINWVRQAPGKGLDWVSVFYSADRTSYADSVKGRFTVSSHDSKNTVYLQMNSLRAEDTAVYYCARVQKSYYGMDVWGQGTTVTVSS VL: GIQMTQSPSSLSASVGDRVTITCRASQSISRYLNWYLQKPGKAPKLLISGASSLQSGVPSRFSGTGSGTEFTLTISSLQPEDFATYYCQQTFSIPLFGQGTKVEIK
846

Identify measured FACS M2-HK MFI associated with 3253_P10 (antibody, V domains shown) VH: QVQLQESGPGLLKPSDTLALTCTVSGGSITSDYWSWIRQPPGRGLDWIGFFYNGGSTKYNPSLKSRVTISADTSKNQLSLKLTSVTAADTGVYYCARHDAKFSGSYYVASWGQGTRVTVSS VL: DIQMTQSPSSLSASVGDRVTISCRASQSISTYLNWYQQQPGKAPKVLISGATDLQSGVPSRFSGSGSGTDFTLTISSLQPEDFATYYCQQSYNTPLIFGQGTKLEIK
43

Identify measured FACS M2-HK MFI associated with 3242_P05 (antibody, V domains shown) VH: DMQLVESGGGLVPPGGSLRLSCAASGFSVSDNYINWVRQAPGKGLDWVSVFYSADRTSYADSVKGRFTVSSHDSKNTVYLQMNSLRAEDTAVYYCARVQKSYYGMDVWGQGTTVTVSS VL: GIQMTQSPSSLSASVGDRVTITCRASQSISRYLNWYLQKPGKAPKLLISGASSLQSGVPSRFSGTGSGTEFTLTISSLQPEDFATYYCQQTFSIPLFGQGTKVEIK
596

Identify measured FACS M2-HK MFI associated with 3136_G05 (antibody, V domains shown) VH: QVQLQESGPGLVKPSETLSLTCSVSGGSISSDFWSWIRQPPGKGLEWIGYVYNRGSTKYSPSLKSRVTISADMSKNQFSLNMSSVTAADTAVYYCAKNGRSSTSWGIDVWGKGTTVTVSS VL: DIQMTQSPSSLSASVGDRLTITCRASQSISTYLHWYQQKPGKAPKLLIYAASSLQSGVPSRFSGSRSGTDFTLTISSLQPDDFATYYCQQSYSPPLTFGPGTKVDMK
109

Identify measured FACS M2-HK MFI associated with 3243_J07 (antibody, V domains shown) VH: QVQLQESGPGLLKPSDTLALTCTVSGGSITSDYWSWIRQPPGRGLDWIGFFYNGGSTKYNPSLKSRVTISADTSKNQLSLKLTSVTAADTGVYYCARHDVKFSGSYYVASWGQGTRVTVSS VL: DIQMTQSPSSLSASVGDRVTISCRASQSISTYLNWYQQQPGKAPKVLISGATNLQSGVPSRFSGSGSGTDFTLTISSLQPEDFATYYCQQSYNTPLIFGQGTKLEIK
131
